Source listed as patent US11925629B2.

Test system: HCT116 (colorectal carcinoma, K Ras G13D) cells
Test: Cell proliferation (Alamar Blue) assay, HCT116
Format: cell-based, human
Conditions: Homo sapiens, HCT-116, HCT116 cells
pIC50: −log10 of the molar value.
Measured metric: pIC50

The cases that follow already have their pIC50 on record.
Cc1cnc(Nc2ccc(C3CCNCC3)cc2)nc1-n1ccc(C(=O)NC(CO)c2cccc(Cl)c2)c1 (stereo not shown) [Example 215]; < 5.60
Cc1cnc(NC2CCOCC2)nc1-n1cnc(C(=O)NC(C(N)=O)c2cccc(Cl)c2)c1 (stereo not shown) [Example 312]; < 5.60

Query block: Data request, read-out pIC50, for Cc1cnc(NC2CCOCC2)nc1-n1cnc(C(=O)N[C@H](CNC2CCOCC2)c2cccc(Cl)c2)c1 [Example 308]
Result block: 6.30 to 6.60

Query block: Data request, read-out pIC50, for O=C(Nc1cnn(-c2ccnc(Nc3ccccc3)n2)c1)N[C@H](CO)c1cccc(Cl)c1 [Example 12]
Result block: < 5.60

Query block: Data request, read-out pIC50, for Cc1cnc(NC2CCOCC2)nc1-n1cnc(C(=O)NCc2cccc(Cl)c2F)c1 [Example 309]
Result block: 5.60 to 6.30
